biological target: benzodiazepine site of the GABA-A receptor; assay: Benzodiazepine Receptor Binding Assay (inhibition of 3H-flunitrazepam binding); conditions: Table 5; ca. 3 nM 3H-flunitrazepam
pIC50: −log10 of the molar value.
# pIC50 per entry
assay_endpoint: pIC50

- CN(C)c1ccc(NC(=O)C2=C3N(C)c4ccccc4N3CCCC2=O)cc1: 5.51
- O=C1CCCN2C(=C1C(=O)Nc1ccc(F)cc1F)Nc1ccccc12: 7.41
- O=C1CCCN2C(=C1C(=O)Nc1ccccc1F)N(Cc1ccccc1)c1ccccc12: 6.82
- CN(C)c1ccc(NC(=O)C2=C3N(CCCC2=O)c2ccccc2N3Cc2ccccc2)cc1: 4.91
- CN(C)c1ccc(NC(=O)C2=C3Nc4ccccc4N3CCCC2=O)cc1: 5.95
- O=C1CCCN2C(=C1C(=O)Nc1ccncc1)N(Cc1ccccc1)c1ccccc12: 5.17
- O=C1CCCN2C(=C1C(=O)Nc1ccccc1)N(Cc1ccccc1)c1ccccc12: 6.38
- O=C1CCCN2C(=C1C(=O)Nc1ccccc1)Nc1ccccc12: 6.98
- CN1C2=C(C(=O)Nc3ccccc3F)C(=O)CCCN2c2ccccc21: 7.66

###

molecular target: benzodiazepine site of the GABA-A receptor; test: Benzodiazepine Receptor Binding Assay (inhibition of 3H-flunitrazepam binding); settings: Table 5; ca. 3 nM 3H-flunitrazepam
pIC50: −log10 of the molar value.
Binary call on pIC50: class 1 from 7 upward, class 0 beneath that.

- O=C1CCCN2C(=C1C(=O)Nc1ccc(F)cc1F)N(Cc1ccccc1)c1ccccc12: class 0
- CN1C2=C(C(=O)Nc3ccccc3)C(=O)CCCN2c2ccccc21: class 1
- CN1C2=C(C(=O)Nc3ccncc3)C(=O)CCCN2c2ccccc21: class 0
- O=C1CCCN2C(=C1C(=O)Nc1ccccc1F)Nc1ccccc12: class 1
- CN1C2=C(C(=O)Nc3c(F)cc(F)cc3F)C(=O)CCCN2c2ccccc21: class 1
- O=C1CCCN2C(=C1C(=O)Nc1ccncc1)Nc1ccccc12: class 0

###

experiment: Horizontal Screen Test for Motor Coordination; assay type: in vivo, male CD1 mice; settings: Mus musculus; Table 1; mice; parenteral; >300 = active dose not determined; read-out: Horiz. Screen ED50
assay_endpoint: ED50

- C[n+]1ccc(NC(=O)C2=C3Nc4ccccc4N3CCC2=O)cc1 [compound 56]: 100 mg/kg
- O=C1CCN2C(=C1C(=O)Nn1cnnc1)Nc1ccccc12 [compound 42]: 300 mg/kg
- NC(=O)c1ccc(NC(=O)C2=C3Nc4ccccc4N3CCC2=O)cc1 [compound 90]: > 10 mg/kg
- O=C1CCN2C(=C1C(=O)NC1CCNCC1)Nc1ccccc12 [compound 58]: 100 mg/kg
- CCCCc1ccc(NC(=O)C2=C3Nc4ccccc4N3CCC2=O)cc1 [compound 17]: 300 mg/kg
- Cc1cccc(C)c1NC(=O)C1=C2Nc3ccccc3N2CCC1=O [compound 19]: 300 mg/kg
- O=C1CCN2C(=C1C(=O)Nc1ccncc1F)Nc1ccccc12 [compound 97]: > 10 mg/kg
- O=C1CCN2C(=C1C(=O)Nc1cccc(F)c1)Nc1ccccc12 [compound 95]: > 10 mg/kg

###

test: Suppression of anxiety (punished licking, conflict test) in the adult male rat; type: in vivo, male rats; conditions: Table 1, ip, minimum effective dose, >10 = active dose not determined, read-out: Conflict (ip) MED
Item-by-item account of minimal effective dose
assay_endpoint: minimal effective dose (mg/kg)

• O=C1CCN2C(=C1C(=O)Nc1ccccn1)Nc1ccccc12 [compound 22] = 10
• Nc1ccccc1NC(=O)C1=C2Nc3ccccc3N2CCC1=O [compound 47] = 10
• O=C1CCN2C(=C1C(=O)Nc1ccccc1F)Nc1ccccc12 [compound 20] = 1
• O=C1CCN2C(=C1C(=O)Nc1c(F)cccc1F)Nc1ccccc12 [compound 36] = 0.1
• CN(C)c1ccc(NC(=O)C2=C3Nc4ccccc4N3CCC2=O)cc1 [compound 24] = 3
• COc1ccc2c(c1)NC1=C(C(=O)NC3CCCCC3)C(=O)CCN12 [compound 37] = 10
